Can you tell me Contractility (% of control) for the items I'm about to list?
# Organism: Felis catus
# test_protocol: Compound was evaluated for inotropic activity in cat papillary muscles at concentration of (10e -5)M
# Type: functional, Papillary muscle

[
  {
    "compound": "O=C1CCC(c2ccc3c(c2)CC(=O)N3)=NN1",
    "Contractility (% of control)": "147%"
  }
]

Hi, could you look up Contractility (% of control) for each item in my list?
1. CC1(C)C(=O)Nc2ccc(C3=NNC(=O)CC3)cc21
2. O=C1CCC(c2ccc(-n3ccnc3)cc2)=NN1

1: 164%; 2: 147%

----------
# Test system: Canis familiaris
# test_protocol: Tested for cardiovascular contractility in anesthetized dogs
# Assay type: functional
# recorded_conditions: Canis lupus familiaris
Hi! Could you tag entries with ED50 below 0.02 mg/kg as 1.0, and those at or above as 0.0? Much appreciated.

[
  {
    "compound": "CC1(C)C(=O)Nc2ccc(C3=NNC(=O)CC3)cc21",
    "experimental_target": "Canis familiaris",
    "cat": 1.0
  },
  {
    "compound": "CN1N=C(c2ccc3c(c2)CC(=O)N3)CCC1=O",
    "experimental_target": "Canis familiaris",
    "cat": 0.0
  },
  {
    "compound": "Cc1cc(C2=NNC(=O)CC2)cc2c1NC(=O)C2(C)C",
    "experimental_target": "Canis familiaris",
    "cat": 1.0
  }
]

Please let me know if CC1(C)CC(=O)Nc2ccc(C3=NNC(=O)CC3)cc21 shows ED50 below 0.02 mg/kg.
0.0

Hello, I'm reviewing records and need to know if ED50 of CC1C(=O)Nc2ccc(C3=NNC(=O)CC3)cc21 (stereo unspecified) is below 0.02 mg/kg. Could you check?
1.0

Below 0.02 mg/kg on ED50? Entry O=C1CCC(c2ccc3c(c2)CC(=O)N3)=NN1
0.0

Just wondering, is ED50 of CC(=O)Nc1ccc(C2=NNC(=O)CC2)cc1 below 0.02 mg/kg?
1.0

Given CCC1C(=O)Nc2ccc(C3=NNC(=O)CC3)cc21 (stereo unspecified) , is recorded ED50 strictly lower than 0.02 mg/kg?
0.0

Is it true that ED50 reported for CC1(C)Cc2cc(C3=NNC(=O)CC3)ccc2NC1=O is less than 0.02 mg/kg?
0.0

Quick check: does O=C1CCC(c2ccc(-n3ccnc3)cc2)=NN1 have ED50 under 0.02 mg/kg?
0.0

Field: below-cutoff. Rule: recorded ED50 strictly less than 0.02 mg/kg. Subject: O=C1CCC(c2ccc3c(c2)CCCC(=O)N3)=NN1
1.0

----------
# Tested on: Canis familiaris
# test_protocol: Evaluated for percent decrease in maximum arterial blood pressure in anesthetized dogs
# Type: functional, Canis lupus familiaris
recorded_metric: Decrease (%)
One number for each entry, in %.

[
  {
    "compound": "CN1C(=O)C(C)(C)c2cc(C3=NNC(=O)CC3)ccc21",
    "Decrease (%)": 13
  }
]

For the 3 compounds below, give their Decrease values.
1. CCC1(C)C(=O)Nc2ccc(C3=NNC(=O)CC3C)cc21 (centres undefined)
2. CN1N=C(c2ccc3c(c2)CC(=O)N3)CCC1=O
3. CC1CC(c2ccc3c(c2)C(C)(C)C(=O)N3)=NNC1=O (centres undefined)

[20, 7, 20]

----------
# Test system: Canis familiaris
# test_protocol: Tested for cardiovascular contractility in anesthetized dogs
# Assay type: functional
# recorded_conditions: Canis lupus familiaris
recorded_metric: ED50 (mg/kg)
Numbers only, in mg/kg.

Example results:
[
  {
    "compound": "CCCC1(C)C(=O)Nc2ccc(C3=NNC(=O)CC3)cc21 (stereo not given)",
    "ED50 / mg/kg": 0.0198
  },
  {
    "compound": "Cc1cc2c(cc1C1=NNC(=O)CC1)C(C)(C)C(=O)N2",
    "ED50 / mg/kg": 0.04
  },
  {
    "compound": "CN1C(=O)C(C)(C)c2cc(C3=NNC(=O)CC3)ccc21",
    "ED50 / mg/kg": 0.052
  }
]

Provide ED50 for all items below, preserving their order.
1. CC1CC(=O)NN=C1c1ccc2c(c1)C(C)(C)C(=O)N2 (stereo not given)
2. CN1C(=O)CCc2cc(C3=NNC(=O)CC3)ccc21

1: 0.0032; 2: 0.0124
